MEASURED_TARGET: Cannabinoid receptor 1 (Mus musculus, UniProt P47746)
Sequence (P47746 whole entry): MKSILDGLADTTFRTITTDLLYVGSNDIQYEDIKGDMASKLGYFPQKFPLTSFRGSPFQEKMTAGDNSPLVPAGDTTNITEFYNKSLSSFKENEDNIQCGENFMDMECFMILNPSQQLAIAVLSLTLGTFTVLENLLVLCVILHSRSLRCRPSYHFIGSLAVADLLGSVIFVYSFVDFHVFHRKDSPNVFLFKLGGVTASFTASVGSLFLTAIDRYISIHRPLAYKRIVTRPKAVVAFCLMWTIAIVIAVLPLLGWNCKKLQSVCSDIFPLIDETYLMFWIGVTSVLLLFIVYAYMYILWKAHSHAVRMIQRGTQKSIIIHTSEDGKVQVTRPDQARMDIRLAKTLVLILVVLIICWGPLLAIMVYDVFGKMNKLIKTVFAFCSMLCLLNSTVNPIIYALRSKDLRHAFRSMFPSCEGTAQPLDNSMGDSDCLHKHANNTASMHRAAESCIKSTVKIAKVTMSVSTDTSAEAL
ASSAY_COMMENT: Displacement of [3H]CP-55940 from CB1R in C57Bl/6Jhsd mouse cortex membrane incubated for 1 hr by liquid scintillation counter analysis
MEASUREMENT_LABEL: Ki

> print(dat)
                                   molecule  measurement.label  observed.measurement
1  CCOC(=O)N1CCC(N[C@H]2CCCOc3c2nn(-c2ccccc2Cl)c3-c2ccc(Cl)cc2)CC1                 Ki                8.9 nM

// data source = BindingDB's records for PubMed 40258217
